System tested: T1, Recombinant human EGFR protein (Active) (ab155639) (human, UniProt P00533 25-645, labelled with RED-tris-NTA 2nd Generation dye)
T1 construct: epidermal growth factor receptor (EGFR, ErbB-1), human, recombinant; also called EGF receptor; ErbB-1; source: bought: Abcam (ab155639), recombinant
Assay details: MST; RED-tris-NTA-labelled EGFR 25 nM, ligand in a 16-step 1:1 dilution series in PBS-T, 30 min at room temperature; assay concentration of the ligand 250 μM
Conditions used: both partners purified
Property name: Kd
Give the number first and the unit second.

Prompt line: Would you kindly share the measured Kd for HDGYCL (EGF, human, residues 10-15; numbers count on: the mature protein; also called 10–15 EGF fragment; source: synthetic peptide (SPPS, Fmoc; crude, without preparative HPLC)) [EGF fragment 10–15 (HDGYCL)] ?
Response line: 48.4 µM

Ref: paper PMC10855902
